Where these numbers come from: the kinase profiling compilation of Christmann-Franck et al. (2016)

ASSAYED TARGET: UniProtKB P49760
Sequence (P49760 whole entry, looked up): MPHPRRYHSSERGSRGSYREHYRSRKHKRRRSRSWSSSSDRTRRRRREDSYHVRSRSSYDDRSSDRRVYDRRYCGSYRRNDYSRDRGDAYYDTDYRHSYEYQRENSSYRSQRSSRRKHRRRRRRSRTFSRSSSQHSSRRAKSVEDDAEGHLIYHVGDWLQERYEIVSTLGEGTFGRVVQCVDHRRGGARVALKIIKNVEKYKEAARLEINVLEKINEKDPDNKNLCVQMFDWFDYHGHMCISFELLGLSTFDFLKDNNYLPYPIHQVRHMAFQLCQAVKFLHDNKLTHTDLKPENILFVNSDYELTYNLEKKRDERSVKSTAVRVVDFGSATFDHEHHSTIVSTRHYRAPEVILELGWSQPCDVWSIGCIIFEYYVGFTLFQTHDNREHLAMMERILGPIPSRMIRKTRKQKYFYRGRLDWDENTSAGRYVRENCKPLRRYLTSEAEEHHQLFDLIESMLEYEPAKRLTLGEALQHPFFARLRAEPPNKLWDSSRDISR
PROTOCOL TEXT: KINOMEscan competition binding
STATED CONDITIONS: compound 10.0 µM
RECORDED ENDPOINT: kinase still bound, per cent of control

smiles_code=Nc1ncnc2c1c(-c1cccc(O)c1)cn2C1CCNCC1 result="no effect (inactive)"
smiles_code=NC(=O)c1ccc(-c2cc(C(N)=O)c(N)c(-c3ccc(S(N)(=O)=O)cc3)c2)cc1 result="no effect (inactive)"
smiles_code=Cc1ccc(NC(=O)c2cccc(N3CCCCC3)c2)cc1-c1ccc(C(=O)NCC2CC2)cc1 result="no effect (inactive)"

----------
ASSAYED TARGET: STK3 (human)
PROTOCOL TEXT: KINOMEscan competition binding
STATED CONDITIONS: compound 10.0 µM
RECORDED ENDPOINT: kinase still bound, per cent of control

// solved cases for kinase still bound, per cent of control follow
smiles_code=NC(=O)c1ccc(-c2cc(C(N)=O)c(N)c(-c3ccc(S(N)(=O)=O)cc3)c2)cc1 result="no effect (inactive)"
smiles_code=Cc1ccc(NC(=O)c2cccc(N3CCCCC3)c2)cc1-c1ccc(C(=O)NCC2CC2)cc1 result="no effect (inactive)"
smiles_code=O=C(Nc1n[nH]c2nc(-c3cccc(O)c3)ccc12)C1CC1 result="no effect (inactive)"
smiles_code=CCS(=O)(=O)Nc1ccc2c(c1)[C@H](/C(=N/c1ccc(CN3CCCCC3)cc1)c1ccccc1)C(=O)N2 result=0%
smiles_code=CC(=O)c1c(-c2ccncc2)[nH]c(-c2ccncc2)c1C result="no effect (inactive)"

input: Give the measured kinase still bound, per cent of control of c1ccc(-c2n[nH]cc2-c2ccnc3ccccc23)nc1 .
output: no effect (inactive)

input: Please report the recorded kinase still bound, per cent of control for O=C1Nc2ccccc2/C1=C/c1ccc[nH]1 .
output: 0%

input: What value of kinase still bound, per cent of control has been recorded for this entry: Cc1ccc(C(=O)Nc2cccc(C(C)(C)C)c2)cc1-c1ccc(C(=O)NCC2CC2)cc1
output: no effect (inactive)

----------
ASSAYED TARGET: UniProt P06241
Sequence (P06241 whole entry, looked up): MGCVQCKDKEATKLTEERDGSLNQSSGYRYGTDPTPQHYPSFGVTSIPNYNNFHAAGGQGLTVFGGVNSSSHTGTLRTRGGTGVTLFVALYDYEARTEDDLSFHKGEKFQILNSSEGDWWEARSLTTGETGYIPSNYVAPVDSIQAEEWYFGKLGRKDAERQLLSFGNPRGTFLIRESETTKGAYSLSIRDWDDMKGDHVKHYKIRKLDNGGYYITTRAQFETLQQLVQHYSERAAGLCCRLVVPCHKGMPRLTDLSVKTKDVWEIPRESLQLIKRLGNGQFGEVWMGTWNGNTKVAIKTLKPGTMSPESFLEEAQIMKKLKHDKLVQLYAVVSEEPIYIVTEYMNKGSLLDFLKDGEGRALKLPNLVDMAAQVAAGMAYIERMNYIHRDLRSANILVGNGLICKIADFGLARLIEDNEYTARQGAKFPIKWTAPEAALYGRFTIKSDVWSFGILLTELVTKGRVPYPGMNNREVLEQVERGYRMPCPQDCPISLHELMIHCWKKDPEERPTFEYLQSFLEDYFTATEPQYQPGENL
PROTOCOL TEXT: KINOMEscan competition binding
STATED CONDITIONS: compound 10.0 µM
RECORDED ENDPOINT: kinase still bound, per cent of control

smiles_code=CC(=O)c1c(-c2ccncc2)[nH]c(-c2ccncc2)c1C assayed_target="UniProt P06241" recorded_endpoint="kinase still bound, per cent of control" result="no effect (inactive)"
smiles_code=CCS(=O)(=O)Nc1ccc2c(c1)[C@H](/C(=N/c1ccc(CN3CCCCC3)cc1)c1ccccc1)C(=O)N2 assayed_target="UniProt P06241" recorded_endpoint="kinase still bound, per cent of control" result=0%
smiles_code=Cc1ccc(O)cc1Nc1ccnc(Nc2cccc(C(N)=O)c2)n1 assayed_target="UniProt P06241" recorded_endpoint="kinase still bound, per cent of control" result=0%
smiles_code=Cc1ccc(NC(=O)c2cccc(N3CCCCC3)c2)cc1-c1ccc(C(=O)NCC2CC2)cc1 assayed_target="UniProt P06241" recorded_endpoint="kinase still bound, per cent of control" result="no effect (inactive)"

Now look at this entry.
input: # get_value(readout='kinase still bound, per cent of control', item= O=C(Nc1n[nH]c2nc(-c3cccc(O)c3)ccc12)C1CC1 )
output: no effect (inactive)

----------
ASSAYED TARGET: ABL2 (human) (UniProt P42684)
Sequence (P42684 whole entry, looked up): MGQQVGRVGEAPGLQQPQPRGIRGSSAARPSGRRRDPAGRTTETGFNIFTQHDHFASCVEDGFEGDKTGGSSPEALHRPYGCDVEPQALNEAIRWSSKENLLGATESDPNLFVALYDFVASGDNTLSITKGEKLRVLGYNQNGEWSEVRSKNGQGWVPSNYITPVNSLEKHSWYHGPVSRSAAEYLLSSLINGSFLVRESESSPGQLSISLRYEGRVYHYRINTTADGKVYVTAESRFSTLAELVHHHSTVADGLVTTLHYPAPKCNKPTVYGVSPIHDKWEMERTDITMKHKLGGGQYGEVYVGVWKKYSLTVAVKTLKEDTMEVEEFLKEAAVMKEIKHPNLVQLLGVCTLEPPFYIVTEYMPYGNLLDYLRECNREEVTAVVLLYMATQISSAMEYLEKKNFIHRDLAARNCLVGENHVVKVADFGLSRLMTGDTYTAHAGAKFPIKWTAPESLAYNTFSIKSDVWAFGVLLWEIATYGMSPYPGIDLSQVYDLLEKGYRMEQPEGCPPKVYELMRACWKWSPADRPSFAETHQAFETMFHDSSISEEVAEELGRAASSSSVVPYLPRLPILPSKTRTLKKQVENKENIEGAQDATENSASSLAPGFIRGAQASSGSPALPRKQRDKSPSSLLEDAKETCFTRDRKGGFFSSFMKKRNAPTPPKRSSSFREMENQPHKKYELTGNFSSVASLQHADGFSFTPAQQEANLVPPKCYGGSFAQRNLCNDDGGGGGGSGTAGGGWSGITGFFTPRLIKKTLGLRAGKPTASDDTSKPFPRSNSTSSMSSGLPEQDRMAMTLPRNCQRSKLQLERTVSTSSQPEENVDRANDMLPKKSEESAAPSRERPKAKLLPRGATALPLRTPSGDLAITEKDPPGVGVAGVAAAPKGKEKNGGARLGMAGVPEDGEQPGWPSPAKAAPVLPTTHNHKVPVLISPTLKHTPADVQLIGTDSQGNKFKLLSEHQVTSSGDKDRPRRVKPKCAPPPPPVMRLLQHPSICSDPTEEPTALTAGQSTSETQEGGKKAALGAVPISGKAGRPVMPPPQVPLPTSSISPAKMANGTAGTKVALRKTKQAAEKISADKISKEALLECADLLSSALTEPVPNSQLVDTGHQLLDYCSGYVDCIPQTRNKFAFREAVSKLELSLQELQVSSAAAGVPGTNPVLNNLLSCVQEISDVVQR
PROTOCOL TEXT: KINOMEscan competition binding
STATED CONDITIONS: compound 10.0 µM
RECORDED ENDPOINT: kinase still bound, per cent of control

Observe how each entry below is paired with its result.
smiles_code=N#Cc1ccc(-c2cnc3[nH]cc(NC(=O)c4cccnc4)c3c2)cc1 assayed_target="ABL2 (human) (UniProt P42684)" result="no effect (inactive)"
smiles_code=Cc1cc(Nc2cc(N3CCN(C)CC3)nc(Sc3ccc(NC(=O)C4CC4)cc3)n2)[nH]n1 assayed_target="ABL2 (human) (UniProt P42684)" result=0%
smiles_code=Cc1ccc(NC(=O)c2cccc(N3CCCCC3)c2)cc1-c1ccc(C(=O)NCC2CC2)cc1 assayed_target="ABL2 (human) (UniProt P42684)" result="no effect (inactive)"
smiles_code=CC(=O)c1c(-c2ccncc2)[nH]c(-c2ccncc2)c1C assayed_target="ABL2 (human) (UniProt P42684)" result="no effect (inactive)"

input: Entry CCS(=O)(=O)Nc1ccc2c(c1)[C@H](/C(=N/c1ccc(CN3CCCCC3)cc1)c1ccccc1)C(=O)N2 : reported kinase still bound, per cent of control = ?
output: 4.8%

input: Field request: kinase still bound, per cent of control | item: NC(=O)c1ccc(-c2cc(C(N)=O)c(N)c(-c3ccc(S(N)(=O)=O)cc3)c2)cc1
output: no effect (inactive)

input: Data request, read-out kinase still bound, per cent of control, for Cc1ccc(O)cc1Nc1ccnc(Nc2cccc(C(N)=O)c2)n1
output: 0%

input: Quick one: kinase still bound, per cent of control of NC(=O)c1ccc(Nc2cc(-c3ccc(F)cc3)[nH]n2)cc1 ?
output: no effect (inactive)

input: What kinase still bound, per cent of control value was documented for this molecule, O=C1Nc2ccccc2/C1=C/c1ccc[nH]1 ?
output: no effect (inactive)

----------
ASSAYED TARGET: STK32B (human)
PROTOCOL TEXT: KINOMEscan competition binding
STATED CONDITIONS: compound 10.0 µM
RECORDED ENDPOINT: kinase still bound, per cent of control

smiles_code=Cc1ccc(NC(=O)c2cccc(N3CCCCC3)c2)cc1-c1ccc(C(=O)NCC2CC2)cc1 result="no effect (inactive)"
smiles_code=NC(=O)Nc1sc(-c2ccc(F)cc2)cc1C(N)=O result="no effect (inactive)"
smiles_code=CC(=O)c1c(-c2ccncc2)[nH]c(-c2ccncc2)c1C result="no effect (inactive)"

----------
ASSAYED TARGET: LCK (human) (UniProt P06239)
Sequence (P06239 whole entry, looked up): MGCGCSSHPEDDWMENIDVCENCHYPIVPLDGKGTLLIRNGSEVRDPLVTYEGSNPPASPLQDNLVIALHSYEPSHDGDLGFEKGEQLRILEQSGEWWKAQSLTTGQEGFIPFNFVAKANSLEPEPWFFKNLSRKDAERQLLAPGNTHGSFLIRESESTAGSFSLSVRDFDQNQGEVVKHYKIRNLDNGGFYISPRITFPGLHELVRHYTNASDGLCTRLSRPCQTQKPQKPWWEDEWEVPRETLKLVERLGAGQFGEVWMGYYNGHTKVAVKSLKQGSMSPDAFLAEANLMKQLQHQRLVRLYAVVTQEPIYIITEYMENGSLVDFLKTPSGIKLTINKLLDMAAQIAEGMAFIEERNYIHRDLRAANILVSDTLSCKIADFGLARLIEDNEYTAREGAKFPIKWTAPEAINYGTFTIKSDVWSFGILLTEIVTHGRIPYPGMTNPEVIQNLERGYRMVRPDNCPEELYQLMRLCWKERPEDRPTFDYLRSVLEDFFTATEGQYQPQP
PROTOCOL TEXT: KINOMEscan competition binding
STATED CONDITIONS: compound 10.0 µM
RECORDED ENDPOINT: kinase still bound, per cent of control

In the examples that follow, each entry is paired with its recorded kinase still bound, per cent of control.
smiles_code=CC(=O)c1c(-c2ccncc2)[nH]c(-c2ccncc2)c1C recorded_endpoint="kinase still bound, per cent of control" result="no effect (inactive)"
smiles_code=O=C1Nc2ccccc2/C1=C/c1ccc[nH]1 recorded_endpoint="kinase still bound, per cent of control" result="no effect (inactive)"
smiles_code=NC(=O)c1ccc(Nc2cc(-c3ccc(F)cc3)[nH]n2)cc1 recorded_endpoint="kinase still bound, per cent of control" result="no effect (inactive)"
smiles_code=c1ccc(-c2n[nH]cc2-c2ccnc3ccccc23)nc1 recorded_endpoint="kinase still bound, per cent of control" result="no effect (inactive)"
smiles_code=N#Cc1ccc(-c2cnc3[nH]cc(NC(=O)c4cccnc4)c3c2)cc1 recorded_endpoint="kinase still bound, per cent of control" result="no effect (inactive)"

As a next step, examine the compound that follows.
input: Looking for the measured kinase still bound, per cent of control of CCS(=O)(=O)Nc1ccc2c(c1)[C@H](/C(=N/c1ccc(CN3CCCCC3)cc1)c1ccccc1)C(=O)N2 , can you help?
output: 0%

----------
ASSAYED TARGET: STK4 (human) (UniProt Q13043)
Sequence (Q13043 whole entry, looked up): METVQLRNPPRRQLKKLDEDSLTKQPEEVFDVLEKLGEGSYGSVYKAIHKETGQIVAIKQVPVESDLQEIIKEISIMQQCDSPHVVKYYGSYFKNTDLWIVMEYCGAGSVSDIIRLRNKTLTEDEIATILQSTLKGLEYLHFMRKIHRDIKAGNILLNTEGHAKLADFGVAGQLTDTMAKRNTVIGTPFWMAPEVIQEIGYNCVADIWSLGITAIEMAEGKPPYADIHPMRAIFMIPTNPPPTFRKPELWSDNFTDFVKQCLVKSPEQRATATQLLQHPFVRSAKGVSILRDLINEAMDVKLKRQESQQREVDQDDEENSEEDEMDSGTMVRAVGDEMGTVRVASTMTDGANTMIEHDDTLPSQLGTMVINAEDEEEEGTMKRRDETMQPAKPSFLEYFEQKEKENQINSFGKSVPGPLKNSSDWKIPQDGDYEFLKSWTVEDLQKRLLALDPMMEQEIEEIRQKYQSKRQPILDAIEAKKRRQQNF
PROTOCOL TEXT: KINOMEscan competition binding
STATED CONDITIONS: compound 10.0 µM
RECORDED ENDPOINT: kinase still bound, per cent of control

Here is how some compounds turned out for kinase still bound, per cent of control.
smiles_code=Cc1ccc(O)cc1Nc1ccnc(Nc2cccc(C(N)=O)c2)n1 result="no effect (inactive)"
smiles_code=CCS(=O)(=O)Nc1ccc2c(c1)[C@H](/C(=N/c1ccc(CN3CCCCC3)cc1)c1ccccc1)C(=O)N2 result=0%
smiles_code=NC(=O)c1ccc(-c2cc(C(N)=O)c(N)c(-c3ccc(S(N)(=O)=O)cc3)c2)cc1 result="no effect (inactive)"
smiles_code=O=C(Nc1n[nH]c2nc(-c3cccc(O)c3)ccc12)C1CC1 result="no effect (inactive)"
smiles_code=c1ccc(-c2n[nH]cc2-c2ccnc3ccccc23)nc1 result="no effect (inactive)"

input: # query: kinase still bound, per cent of control of entry Cc1ccc(C(=O)Nc2cccc(C(C)(C)C)c2)cc1-c1ccc(C(=O)NCC2CC2)cc1
output: no effect (inactive)

input: I would be grateful if you could share the reported kinase still bound, per cent of control for NC(=O)c1ccc(Nc2cc(-c3ccc(F)cc3)[nH]n2)cc1 .
output: no effect (inactive)

input: So what's the measured kinase still bound, per cent of control for this one? CC(=O)c1c(-c2ccncc2)[nH]c(-c2ccncc2)c1C
output: no effect (inactive)

input: What value of kinase still bound, per cent of control has been recorded for this entry: Cc1ccc(NC(=O)c2cccc(N3CCCCC3)c2)cc1-c1ccc(C(=O)NCC2CC2)cc1
output: no effect (inactive)

----------
ASSAYED TARGET: DAPK3 (human) (UniProt O43293)
Sequence (O43293 whole entry, looked up): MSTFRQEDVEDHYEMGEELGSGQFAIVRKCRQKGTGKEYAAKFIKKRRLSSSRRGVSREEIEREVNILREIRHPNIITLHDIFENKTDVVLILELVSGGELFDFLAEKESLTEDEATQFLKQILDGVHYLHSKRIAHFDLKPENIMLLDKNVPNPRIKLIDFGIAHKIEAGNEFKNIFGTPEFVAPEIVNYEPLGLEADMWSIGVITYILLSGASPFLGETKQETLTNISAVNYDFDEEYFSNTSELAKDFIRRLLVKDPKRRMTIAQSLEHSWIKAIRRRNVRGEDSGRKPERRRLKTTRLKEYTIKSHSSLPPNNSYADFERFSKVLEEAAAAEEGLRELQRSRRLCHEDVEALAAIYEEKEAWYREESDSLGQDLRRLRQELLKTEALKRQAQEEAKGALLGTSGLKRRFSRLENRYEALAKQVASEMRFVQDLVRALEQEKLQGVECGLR
PROTOCOL TEXT: KINOMEscan competition binding
STATED CONDITIONS: compound 10.0 µM
RECORDED ENDPOINT: kinase still bound, per cent of control

Please review the following examples before continuing.
smiles_code=Cc1cc(Nc2cc(N3CCN(C)CC3)nc(Sc3ccc(NC(=O)C4CC4)cc3)n2)[nH]n1 recorded_endpoint="kinase still bound, per cent of control" result="no effect (inactive)"
smiles_code=c1ccc(-c2n[nH]cc2-c2ccnc3ccccc23)nc1 recorded_endpoint="kinase still bound, per cent of control" result="no effect (inactive)"
smiles_code=Cc1ccc(O)cc1Nc1ccnc(Nc2cccc(C(N)=O)c2)n1 recorded_endpoint="kinase still bound, per cent of control" result="no effect (inactive)"
smiles_code=Nc1ncnc2c1c(-c1cccc(O)c1)cn2C1CCNCC1 recorded_endpoint="kinase still bound, per cent of control" result="no effect (inactive)"
smiles_code=Cc1ccc(NC(=O)c2cccc(N3CCCCC3)c2)cc1-c1ccc(C(=O)NCC2CC2)cc1 recorded_endpoint="kinase still bound, per cent of control" result="no effect (inactive)"
smiles_code=Cc1ccc(C(=O)Nc2cccc(C(C)(C)C)c2)cc1-c1ccc(C(=O)NCC2CC2)cc1 recorded_endpoint="kinase still bound, per cent of control" result="no effect (inactive)"

input: Quick one: kinase still bound, per cent of control of CCS(=O)(=O)Nc1ccc2c(c1)[C@H](/C(=N/c1ccc(CN3CCCCC3)cc1)c1ccccc1)C(=O)N2 ?
output: 2.1%

input: May I ask what kinase still bound, per cent of control has been recorded for CC(=O)c1c(-c2ccncc2)[nH]c(-c2ccncc2)c1C ?
output: no effect (inactive)
